system: human erythropoietin receptor on human erythroleukemic cells (UT-7/Epo, F36E) (human), P19235
Sequence (P19235 25-508, stated change not applied): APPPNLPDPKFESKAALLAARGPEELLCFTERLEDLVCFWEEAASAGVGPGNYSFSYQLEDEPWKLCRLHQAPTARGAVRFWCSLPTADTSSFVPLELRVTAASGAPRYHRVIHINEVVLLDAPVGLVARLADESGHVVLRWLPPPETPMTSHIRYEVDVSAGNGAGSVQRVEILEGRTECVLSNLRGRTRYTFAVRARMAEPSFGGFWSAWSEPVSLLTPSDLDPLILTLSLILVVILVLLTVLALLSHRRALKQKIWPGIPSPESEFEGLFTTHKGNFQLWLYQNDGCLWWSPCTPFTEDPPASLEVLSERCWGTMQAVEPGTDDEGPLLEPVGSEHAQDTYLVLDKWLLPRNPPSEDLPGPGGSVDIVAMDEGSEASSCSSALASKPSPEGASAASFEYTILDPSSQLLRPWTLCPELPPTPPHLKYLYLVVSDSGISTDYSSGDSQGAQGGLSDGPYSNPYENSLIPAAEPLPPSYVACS
method: cell-based or functional assay
I'd appreciate it if you marked entries satisfied when EC50, cell proliferation assay is lower than 1 nM and not satisfied when it is not.

Consider the worked cases shown below.
Ab12 (antibody, human IgG2, V domains shown) VH: QVQLQESGPGLVKPSETLSLTCTVSGASISSYYWSWIRQPPGKGLEWIGYIYYSGSTNYNPSLKSRVTISVDTSKNQFSLKLRSVTAADTAVYYCARERLGIGDYWGQGTLVTVSS VL: DIQLTQSPSSLSASVGDRVTITCRASQGIRNDLGWYQQKPGKAPKRLIYAASSLQSGVPSRFSGSGSGTEFTLTISSLQPEDFATYYCLQHNTYPPTFGQGTKVEIK | not satisfied
Ab12.118 (antibody, IgG2, V domains shown) VH: QVQLQESGPGLVKPSETLSLTCTVSGASISSYYWSWIRQPPGKGLEWIGYIGYSGSTNYNPSLKSRVTISVDTSKNQFSLKLRSVTAADTAVYYCARERLGIGDYWGQGTLVTVSS VL: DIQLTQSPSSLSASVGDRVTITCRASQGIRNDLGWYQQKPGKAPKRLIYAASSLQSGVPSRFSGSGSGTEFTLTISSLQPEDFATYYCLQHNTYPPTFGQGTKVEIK | not satisfied
Ab12.56 (antibody, IgG2, V domains shown) VH: QVQLQESGPGLVKPSETLSLTCTVSGASISSYYWSWIRQPPGKGLEWIGYIAGTGSTNYNPSLKSRVTISVDTSKNQFSLKLRSVTAADTAVYYCARERLGIGDYWGQGTLVTVSS VL: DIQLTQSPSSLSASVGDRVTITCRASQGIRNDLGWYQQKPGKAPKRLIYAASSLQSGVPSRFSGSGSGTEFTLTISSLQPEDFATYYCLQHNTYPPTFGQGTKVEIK | not satisfied
Ab12.119 (antibody, IgG2, V domains shown) VH: QVQLQESGPGLVKPSETLSLTCTVSGASISSYYWSWIRQPPGKGLEWIGYIYGSGSTNYNPSLKSRVTISVDTSKNQFSLKLRSVTAADTAVYYCARERLGIGDYWGQGTLVTVSS VL: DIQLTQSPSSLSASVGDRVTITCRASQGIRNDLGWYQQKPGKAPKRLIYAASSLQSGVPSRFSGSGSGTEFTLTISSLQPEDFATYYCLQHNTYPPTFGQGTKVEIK | not satisfied
Ab12.122 (antibody, IgG2, V domains shown) VH: QVQLQESGPGLVKPSETLSLTCTVSGASISSYYWSWIRQPPGKGLEWIGYIYGEGSTNYNPSLKSRVTISVDTSKNQFSLKLRSVTAADTAVYYCARERLGIGDYWGQGTLVTVSS VL: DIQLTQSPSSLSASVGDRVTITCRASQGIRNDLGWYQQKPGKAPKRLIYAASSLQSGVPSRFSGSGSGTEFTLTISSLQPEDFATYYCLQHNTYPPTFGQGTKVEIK | satisfied

Moving on to another binder below.
Consider the binder Ab12.6 (antibody, V domains shown) VH: QVQLQESGPGLVKPSETLSLTCTVSGASISSYYWSWIRQPPGKGLEWIGYIGGEGSTNYNPSLKSRVTISVDTSKNQFSLKLRSVTAADTAVYYCARERLGIGDYWGQGTLVTVSS VL: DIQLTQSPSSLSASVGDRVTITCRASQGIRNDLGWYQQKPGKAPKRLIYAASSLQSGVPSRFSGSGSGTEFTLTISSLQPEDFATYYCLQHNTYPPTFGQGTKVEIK . Is its EC50, cell proliferation assay strictly less than 1 nM? satisfied
